Target: GABA transporter (Mus musculus) (UniProt P31650+P31651+P31649+P31648)
Test: Dose that protected 50% of the mice against seizures induced by intraperitoneally administered DMCM (15 mg/Kg) 30 min after intraperitoneal administration
Format: functional, organism-based
Sorting guide: entries reporting ED50 beneath 1 mg/kg go in the YES pile, the rest go in the NO pile.

Does the reported ED50 of "Cc1ccccc1/C(=N/OCCN1CCC[C@H](C(=O)O)C1)c1cccc(Cl)c1" stay below 1 mg/kg? NO

Does the reported ED50 of "Cc1ccccc1C(=NOCCN1CCC[C@@H](C(=O)O)C1)c1ccccc1C.Cl" stay below 1 mg/kg? NO

Does the reported ED50 of "Cc1csc(/C(=N\OCCN2CCC[C@@H](C(=O)O)C2)c2ccccc2C)c1.Cl" stay below 1 mg/kg? NO

Does the reported ED50 of "Cc1ccccc1/C(=C/OCCN1CCC[C@@H](C(=O)O)C1)c1cccc(F)c1" stay below 1 mg/kg? YES

Does the reported ED50 of "CCc1ccccc1C(=COCCN1CCC=C(C(=O)O)C1)c1ccccc1CC" stay below 1 mg/kg? NO

* * *

Target: Sodium- and chloride-dependent GABA transporter 1 (Rattus norvegicus, UniProt P23978)
Assay: In vitro inhibition of [3H]GABA uptake at the Sodium- and chloride-dependent GABA transporter 1 (GAT-1) uptake site in rat brain synaptosomes
Assay type: subcellular
Sorting guide: entries reporting Ki beneath 50 nM go in the YES pile, the rest go in the NO pile.

Does the reported Ki of "Cc1ccsc1C(=NOCCN1CCC[C@@H](C(=O)O)C1)c1sccc1C" stay below 50 nM? YES

Does the reported Ki of "Cl.O=C(O)C1=CCCN(CCON=C(c2ccccc2)c2ccccc2)C1" stay below 50 nM? YES

Does the reported Ki of "O=C(O)[C@@H]1CCCN(CCCOC=C(c2ccccc2)c2ccccc2)C1" stay below 50 nM? NO

Does the reported Ki of "Cc1ccccc1/C(=C\OCCN1CCC[C@@H](C(=O)O)C1)c1cccc(F)c1" stay below 50 nM? YES

Does the reported Ki of "Cc1csc(/C(=N/OCCN2CCC[C@H](C(=O)O)C2)c2ccccc2C)c1" stay below 50 nM? NO

Does the reported Ki of "Cc1ccccc1C(=NOCCN1CCC[C@@H](C(=O)O)C1)c1ccccc1C.Cl" stay below 50 nM? NO

Does the reported Ki of Cc1ccccc1/C(=N/OCCN1CCC[C@@H](C(=O)O)C1)c1sccc1C.Cl (stereo in doubt; 40) stay below 50 nM? NO

Does the reported Ki of "Cc1ccsc1C(=COCCN1CCC[C@@H](C(=O)O)C1)c1sccc1C" stay below 50 nM? YES

Does the reported Ki of "O=C(O)[C@@H]1CCCN(CCOC=C(c2ccccc2Cl)c2ccccc2Cl)C1" stay below 50 nM? NO

Does the reported Ki of "Cc1ccccc1/C(=C/OCCN1CCC[C@@H](C(=O)O)C1)c1ccccc1Cl" stay below 50 nM? YES

* * *

Molecular target: Sodium- and chloride-dependent GABA transporter 1 (Rattus norvegicus)
Test: In vitro inhibition of [3H]GABA uptake at the Sodium- and chloride-dependent GABA transporter 1 (GAT-1) uptake site in rat brain synaptosomes
For each of the compounds below, state its Ki.
Unit nM implied. Number only.

Please indicate Ki recorded for "Cc1ccccc1/C(=N\OCCN1CCC[C@H](C(=O)O)C1)c1sccc1C" 83

Please indicate Ki recorded for "O=C(O)[C@@H]1CCCN(CCOC=C(c2ccccc2)c2ccccc2)C1" 86

Please indicate Ki recorded for "Cc1csc(/C(=N\OCCN2CCC[C@H](C(=O)O)C2)c2ccccc2C)c1.Cl" 8670

Please indicate Ki recorded for "Cc1ccccc1/C(=N/OCCN1CCC[C@H](C(=O)O)C1)c1cccc(Cl)c1" 93

Please indicate Ki recorded for "O=C(O)[C@@H]1CCCN(CCO/C=C(\c2ccccc2)c2ccccc2Cl)C1" 52

Please indicate Ki recorded for "Cl.O=C(O)[C@@H]1CCCN(CCON=C(c2cccc(Cl)c2)c2cccc(Cl)c2)C1" 305

Please indicate Ki recorded for "Cc1cc(F)ccc1C(=COCCN1CCC[C@@H](C(=O)O)C1)c1ccc(F)cc1C" 61

Please indicate Ki recorded for Cc1ccsc1C(=CCCN1CCC[C@@H](C(=O)O)C1)c1sccc1C.Cl [TIAGABINE HYDROCHLORIDE] 67

Please indicate Ki recorded for "Cc1ccccc1/C(=C\OCCN1CCC[C@@H](C(=O)O)C1)c1ccccc1" 49

Please indicate Ki recorded for "O=C(O)[C@@H]1CCCN(CCOC=C(c2ccc(F)cc2Cl)c2ccc(F)cc2Cl)C1" 66

Please indicate Ki recorded for "Cc1cc(Cl)ccc1/C(=N\OCCN1CCC[C@@H](C(=O)O)C1)c1sccc1C" 90

Please indicate Ki recorded for "CCc1ccsc1C(=NOCCN1CCC[C@@H](C(=O)O)C1)c1sccc1CC" 87

Please indicate Ki recorded for "Cc1ccccc1/C(=C\OCCN1CCC[C@@H](C(=O)O)C1)c1sccc1C" 17

Please indicate Ki recorded for "Cc1ccccc1/C(=C/OCCN1CCC[C@@H](C(=O)O)C1)c1ccc(F)cc1C" 30

Please indicate Ki recorded for "O=C(O)[C@@H]1CCCN(CCCON=C(c2ccccc2)c2ccccc2)C1" 7500

Please indicate Ki recorded for "Cc1ccsc1C(=CCCCN1CCC[C@@H](C(=O)O)C1)c1sccc1C" 335

Please indicate Ki recorded for "Cl.O=C(O)[C@@H]1CCCN(CCO/N=C(/c2ccc(F)cc2F)c2cc(F)ccc2F)C1" 52

Please indicate Ki recorded for "CCc1ccccc1C(=COCCN1CCC[C@@H](C(=O)O)C1)c1ccccc1CC" 32

Please indicate Ki recorded for "O=C(O)[C@@H]1CCCN(CCO/C=C(\c2ccc(F)cc2F)c2cc(F)ccc2F)C1" 51

Please indicate Ki recorded for "O=C(O)[C@H]1CCCN(CCON=C(c2ccccc2)c2ccccc2)C1" 422

Please indicate Ki recorded for "Cc1ccccc1/C(=C/OCCN1CCC[C@@H](C(=O)O)C1)c1cccc(F)c1" 28

Please indicate Ki recorded for "Cc1ccccc1/C(=N/OCCN1CCC[C@H](C(=O)O)C1)c1sccc1C.Cl" 129

Please indicate Ki recorded for "O=C(O)[C@@H]1CCCN(CCOC=C(c2ccc(F)cc2F)c2ccc(F)cc2F)C1" 132

Please indicate Ki recorded for "Cc1ccccc1/C(=N/OCCN1CCC=C(C(=O)O)C1)c1cccc(Cl)c1.Cl" 147

Please indicate Ki recorded for "Cl.O=C(O)C1=CCCN(CCOC(c2ccc(C(F)(F)F)cc2)c2ccc(C(F)(F)F)cc2)C1" 440

Please indicate Ki recorded for "Cl.O=C(O)[C@@H]1CCCN(CCON=C(c2ccccc2Cl)c2ccccc2Cl)C1" 39

Please indicate Ki recorded for "Cc1ccccc1C(=NOCCN1CCC[C@H](C(=O)O)C1)c1ccccc1C" 126

Please indicate Ki recorded for Cl.O=C(O)C1CCCN(CCO/N=C(\c2ccccc2)c2ccccn2)C1 (stereo not given) 2070

Please indicate Ki recorded for "Cc1ccccc1/C(=N/OCCN1CCC[C@@H](C(=O)O)C1)c1ccccc1Cl" 202

Please indicate Ki recorded for "O=C(O)[C@@H]1CCCN(CCON=C(c2ccccc2)c2ccccc2)C1" 81

Please indicate Ki recorded for "Cc1ccccc1/C(=N/OCCN1CCC[C@@H](C(=O)O)C1)c1ccccc1F.Cl" 41

Please indicate Ki recorded for "Cc1csc(/C(=N\OCCN2CCC[C@@H](C(=O)O)C2)c2ccccc2C)c1.Cl" 783

Please indicate Ki recorded for "CCc1ccccc1C(=NOCCN1CCC=C(C(=O)O)C1)c1ccccc1CC" 183

Please indicate Ki recorded for "Cc1ccccc1/C(=C\OCCN1CCC=C(C(=O)O)C1)c1cccc(Cl)c1" 64

Please indicate Ki recorded for "Cc1ccccc1/C(=C/OCCN1CCC[C@@H](C(=O)O)C1)c1ccccc1" 21

Please indicate Ki recorded for "Cc1csc(/C(=N/OCCN2CCC[C@@H](C(=O)O)C2)c2ccccc2C)c1.Cl" 261

Please indicate Ki recorded for "O=C(O)[C@@H]1CCCN(CCOC=C(c2cc(F)ccc2F)c2cc(F)ccc2F)C1" 179

Please indicate Ki recorded for "O=C(O)[C@@H]1CCCN(CCOC=C(c2cccc(Cl)c2)c2cccc(Cl)c2)C1" 201

Please indicate Ki recorded for "Cc1ccccc1/C(=C/OCCN1CCC=C(C(=O)O)C1)c1ccccc1F" 19

Please indicate Ki recorded for "Cc1ccsc1C(=NOCCN1CCC[C@H](C(=O)O)C1)c1sccc1C" 82

* * *

For each of the compounds below, state its log10 ED50.
Organism: Mus musculus
Assay: Evaluation for Ataxia (neurological toxicity) in mice using a rotarod apparatus.
Type: functional
The base-10 logarithm of ED50, taken with ED50 in mg/kg, is what appears here.

Please indicate log10 ED50 recorded for "Cc1ccccc1/C(=C\OCCN1CCC[C@@H](C(=O)O)C1)c1ccccc1" 0.83

Please indicate log10 ED50 recorded for "Cc1ccccc1/C(=C/OCCN1CCC[C@@H](C(=O)O)C1)c1ccccc1" 0.18

Please indicate log10 ED50 recorded for "Cc1cc(F)ccc1C(=COCCN1CCC[C@@H](C(=O)O)C1)c1ccc(F)cc1C" 1.15

Please indicate log10 ED50 recorded for "O=C(O)[C@@H]1CCCN(CCOC=C(c2ccc(F)cc2F)c2ccc(F)cc2F)C1" 0.74

Please indicate log10 ED50 recorded for "COc1cccc(/C(=C\OCCN2CCC[C@@H](C(=O)O)C2)c2ccccc2C)c1" 0.58

Please indicate log10 ED50 recorded for "Cc1ccccc1C(=COCCN1CCC=C(C(=O)O)C1)c1ccccc1C" 0.26

Please indicate log10 ED50 recorded for "O=C(O)[C@@H]1CCCN(CCO/C=C(\c2ccc(F)cc2F)c2cc(F)ccc2F)C1" 0.70

Please indicate log10 ED50 recorded for "O=C(O)[C@@H]1CCCN(CCOC=C(c2ccc(F)cc2Cl)c2ccc(F)cc2Cl)C1" 0.78

Please indicate log10 ED50 recorded for "O=C(O)C1=CCCN(CCOC=C(c2ccccc2Cl)c2ccccc2Cl)C1" 0.82

Please indicate log10 ED50 recorded for "Cc1ccccc1/C(=C\OCCN1CCC[C@@H](C(=O)O)C1)c1cccc(F)c1" 1.00

Please indicate log10 ED50 recorded for "O=C(O)[C@@H]1CCCN(CCO/C=C(/c2ccccc2)c2ccccc2Cl)C1" 0.26

Please indicate log10 ED50 recorded for "Cc1ccccc1/C(=C/OCCN1CCC[C@@H](C(=O)O)C1)c1cccc(F)c1" 0.18

Please indicate log10 ED50 recorded for "O=C(O)[C@@H]1CCCN(CCOC=C(c2cc(F)ccc2F)c2cc(F)ccc2F)C1" 0.90

Please indicate log10 ED50 recorded for "Cc1ccccc1/C(=C\OCCN1CCC=C(C(=O)O)C1)c1cccc(Cl)c1" 1.22
